# experimental_system: T1, insulin (UniProt P01308 25-54; P01308 90-110, limits assumed)
# T1 construct: Mature insulin has two chains (A and B) from one precursor; also called b-insulin
# T1 sequence (P01308 25-54 limits assumed, form in doubt, chain 1 of 2): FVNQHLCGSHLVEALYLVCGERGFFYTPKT
# T1 sequence (P01308 90-110 limits assumed, form in doubt, chain 2 of 2): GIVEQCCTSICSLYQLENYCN
# test: SPR, Biacore T200; target immobilized on CM5, His6-tagged Y variant injected; 1:1 Langmuir
experimental_endpoint: pKd
Expect pKd as a plain number equal to -log10 of the molar concentration.

- binder: "Y00294 (designed binder, Y00270 with E35Q + A43K) MGSSHHHHHHGSSLAEAKEAAIAELDSKGVGAYQIKFIELAKSVEHVQLLKEAILKDLP"
  pKd: 6.31
- binder: "Y00270 (designed binder, Y00032 with K22I + S23K) MGSSHHHHHHGSSLAEAKEAAIAELDSKGVGAYQIKFIELAKSVEHVELLKEAILADLP"
  pKd: 7.11
- binder: "Y00032 (designed binder) MGSSHHHHHHGSSLAEAKEAAIAELDSKGVGAYQKSFIELAKSVEHVELLKEAILADLP"
  pKd: 7.20
- binder: "Y00293 (designed binder, Y00270 with E35Q + E39Q; also called Y000293) MGSSHHHHHHGSSLAEAKEAAIAELDSKGVGAYQIKFIELAKSVEHVQLLKQAILADLP"
  pKd: 6.31
- binder: "Y00295 (designed binder, Y00270 with E35Q + E39Q + A43K) MGSSHHHHHHGSSLAEAKEAAIAELDSKGVGAYQIKFIELAKSVEHVQLLKQAILKDLP"
  pKd: 6.24

# input Looking for the measured pKd of Y00292 (designed binder, Y00032 with S23K + E35Q + E39Q) MGSSHHHHHHGSSLAEAKEAAIAELDSKGVGAYQKKFIELAKSVEHVQLLKQAILADLP , can you help?
# output 6.35
